Data origin: ChEMBL document CHEMBL1138970

assay: Inhibition of MT4 cell viability; format: cell-based; conditions: human, MT4 cells
Each record here notes measured CC50.

record.smiles	CC50
CCCn1c(=O)c(C)cn([C@@H]2O[C@H](CO[Si](C)(C)C(C)(C)C)[C@@]3(OS(=O)(=O)C=C3N)[C@H]2O[Si](C)(C)C(C)(C)C)c1=O	75 µM
Cc1cn([C@@H]2O[C@H](CO[Si](C)(C)C(C)(C)C)[C@@]3(OS(=O)(=O)C=C3N)[C@H]2O[Si](C)(C)C(C)(C)C)c(=O)n(CCc2ccccc2)c1=O	2 µM
Cc1cn([C@@H]2O[C@H](CO[Si](C)(C)C(C)(C)C)[C@@]3(OS(=O)(=O)C=C3N)[C@H]2O[Si](C)(C)C(C)(C)C)c(=O)n(CCCN(CC(=O)O)CC(=O)O)c1=O	123 µM

====

target: Human immunodeficiency virus type 1 reverse transcriptase (Human immunodeficiency virus 1, UniProt Q72547); assay: Inhibition of FLAG-p66/HIS-p51-mediated HIV1 reverse transcriptase dimerization
pIC50: −log10 of the molar value.

record.smiles	pIC50
Cc1cn([C@@H]2O[C@H](CO[Si](C)(C)C(C)(C)C)[C@@]3(OS(=O)(=O)C=C3N)[C@H]2O[Si](C)(C)C(C)(C)C)c(=O)n(CCCN(CC(=O)O)CC(=O)O)c1=O	5.28
Cc1cn([C@@H]2O[C@H](CO[Si](C)(C)C(C)(C)C)[C@@]3(OS(=O)(=O)C=C3N)[C@H]2O[Si](C)(C)C(C)(C)C)c(=O)n(CC(=O)N[C@@H](C)C(=O)O)c1=O	4.92
Cc1cn([C@@H]2O[C@H](CO[Si](C)(C)C(C)(C)C)[C@@]3(OS(=O)(=O)C=C3N)[C@H]2O[Si](C)(C)C(C)(C)C)c(=O)n(CC(=O)O)c1=O	5.26
CCc1cn([C@@H]2O[C@H](CO[Si](C)(C)C(C)(C)C)[C@@]3(OS(=O)(=O)C=C3N)[C@H]2O[Si](C)(C)C(C)(C)C)c(=O)[nH]c1=O	5.07
CNC(=O)CCCCn1c(=O)c(C)cn([C@@H]2O[C@H](CO[Si](C)(C)C(C)(C)C)[C@@]3(OS(=O)(=O)C=C3N)[C@H]2O[Si](C)(C)C(C)(C)C)c1=O	5.17
Cc1cn([C@@H]2O[C@H](CO[Si](C)(C)C(C)(C)C)[C@@]3(OS(=O)(=O)C=C3N)[C@H]2O[Si](C)(C)C(C)(C)C)c(=O)n(/C=C\CO)c1=O	5.51

====

Each record here notes measured CC50.
assay: Inhibition of MT4 cell viability; assay type: cell-based; details: human, MT4 cells

record.smiles	relational.operator	CC50, µM
Cc1cn([C@@H]2O[C@H](CO[Si](C)(C)C(C)(C)C)[C@@]3(OS(=O)(=O)C(I)=C3N)[C@H]2O[Si](C)(C)C(C)(C)C)c(=O)[nH]c1=O	=	4
Cc1cn([C@@H]2O[C@H](CO[Si](C)(C)C(C)(C)C)[C@@]3(OS(=O)(=O)C=C3N)[C@H]2O[Si](C)(C)C(C)(C)C)c(=O)n(CCCO)c1=O	=	4
Cc1cn([C@@H]2O[C@H](CO[Si](C)(C)C(C)(C)C)[C@@]3(OS(=O)(=O)C=C3N)[C@H]2O[Si](C)(C)C(C)(C)C)c(=O)n(CC(=O)N[C@@H](C)C(=O)O)c1=O	>	250

====

Each record here notes measured pIC50.
target: Human immunodeficiency virus type 1 reverse transcriptase (Human immunodeficiency virus 1); experiment: Inhibition of HIV1 reverse transcriptase RNA-dependent DNA polymerase activity
pIC50: −log10 of the molar value.
readout.kind: pIC50

> print(dat)
                              record.smiles  recorded.measurement
1  COC(=O)C(=O)NC1=CS(=O)(=O)O[C@@]12[C@@H](COCc1ccccc1)O[C@@H](n1cc(C)c(=O)n(C)c1=O)[C@@H]2O[Si](C)(C)C(C)(C)C                  5.27
2  CCCn1c(=O)c(C)cn([C@@H]2O[C@H](CO[Si](C)(C)C(C)(C)C)[C@@]3(OS(=O)(=O)C=C3N)[C@H]2O[Si](C)(C)C(C)(C)C)c1=O                  6.30
3  Cc1cn([C@@H]2O[C@H](CO[Si](C)(C)C(C)(C)C)[C@@]3(OS(=O)(=O)C=C3N)[C@H]2O[Si](C)(C)C(C)(C)C)c(=O)n(/C=C/CO)c1=O                  6.30
4  Cc1cn([C@@H]2O[C@H](CO[Si](C)(C)C(C)(C)C)[C@@]3(OS(=O)(=O)C=C3N)[C@H]2O[Si](C)(C)C(C)(C)C)c(=O)n(CCc2ccccc2)c1=O                  6.10
5  CN(C)C(=O)c1cnnn1[C@@H]1O[C@H](CO[Si](C)(C)C(C)(C)C)[C@@]2(OS(=O)(=O)C=C2N)[C@H]1O[Si](C)(C)C(C)(C)C                  5.19
6  CNC(=O)CCCCn1c(=O)c(C)cn([C@@H]2O[C@H](CO[Si](C)(C)C(C)(C)C)[C@@]3(OS(=O)(=O)C=C3N)[C@H]2O[Si](C)(C)C(C)(C)C)c1=O                  5.49
